# SYSTEM NAME: T1, human GIP receptor (human, UniProt P48546 22-466)
# T1 sequence (looked up): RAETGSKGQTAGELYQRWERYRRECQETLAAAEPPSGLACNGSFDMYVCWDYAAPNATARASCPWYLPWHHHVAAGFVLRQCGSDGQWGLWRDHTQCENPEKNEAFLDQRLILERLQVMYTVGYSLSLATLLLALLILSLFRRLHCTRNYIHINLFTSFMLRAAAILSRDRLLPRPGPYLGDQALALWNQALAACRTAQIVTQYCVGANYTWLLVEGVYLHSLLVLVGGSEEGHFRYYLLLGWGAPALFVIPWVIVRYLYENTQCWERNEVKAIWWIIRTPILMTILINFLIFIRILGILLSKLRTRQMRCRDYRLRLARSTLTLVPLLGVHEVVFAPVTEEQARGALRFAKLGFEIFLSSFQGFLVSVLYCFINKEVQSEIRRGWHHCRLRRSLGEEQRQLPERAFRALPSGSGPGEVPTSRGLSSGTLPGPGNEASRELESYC
# ASSAY PROTOCOL: cell-based or functional assay
READOUT KIND: cAMP EC50, in the presence of FBS and BSA (nM)

BINDER | MEAS VALUE
YXQGTXTSDYSILLDKKAQXAFIEYLLEGGPSSGAPPPS (Aib at 2; αMeF(2F) at 6; K17 conjugated at the epsilon-amino group with (2-[2-(2-amino-ethoxy)-ethoxy]-acetyl)-(γGlu)-CO-(CH2)18-CO2H; Aib at 20; C-terminal amide, Synthetic acylated peptide) [Example 4] | 1.37
YXQGTXTSDYSIXLDKKAQXAFIEYLLEGGPSSGAPPPS (Aib at 2; αMeF at 6; αMeL at 13; K17 conjugated at the epsilon-amino group with (2-[2-(2-amino-ethoxy)-ethoxy]-acetyl)2-(γGlu)-CO-(CH2)18-CO2H; Aib at 20; C-terminal amide, Synthetic acylated peptide) [Example 2] | 1.34
YXHGTXTSDYSILLDKKAQXAFIEYLLEGGPSSGAPPPS (Aib at 2; αMeF(2F) at 6; K17 conjugated at the epsilon-amino group with (2-[2-(2-amino-ethoxy)-ethoxy]-acetyl)2-(γGlu)-CO-(CH2)18-CO2H; Aib at 20; C-terminal amide, Synthetic acylated peptide) [Example 3] | 1.37
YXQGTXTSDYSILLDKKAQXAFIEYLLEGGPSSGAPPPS (Aib at 2; αMeF at 6; K17 conjugated at the epsilon-amino group with (2-[2-(2-amino-ethoxy)-ethoxy]-acetyl)2-(γGlu)-CO-(CH2)18-CO2H; Aib at 20; C-terminal amide, Synthetic acylated peptide) [Example 1] | 1.82
